Let's look at some molecules and their measured TGI.
System: SF-268 CNS
EXPERIMENTAL_PROTOCOL: NCI tumour cell line growth inhibition, 48 h

MOLECULE	TESTED_TARGET	UNITS_TEXT	RELATION_SYMBOL	TGI
c1coc(-c2c3ccc(=[N+]4CCCCC4)cc-3oc3cc(N4CCCCC4)ccc23)c1	SF-268 CNS	µM	=	0.472
O=C1NCCS(=O)(=O)N[C@@H](CC2=CC=CCC2)C(=O)N2CCCC12 (stereo not given in full)	SF-268 CNS	µM	>	100
O=C1Nc2ccccc2/C1=C1\CCc2cc(O)ccc21	SF-268 CNS	µM	>	25
COc1ccc(-c2nc(-c3cc(OC)cc(OC)c3)[nH]c2-c2ccc(OC)cc2)cc1	SF-268 CNS	µM	>	100
O=C1NCC(NC(=O)C(F)(F)F)c2c(Br)sc(Br)c21 (stereo not given)	SF-268 CNS	µM	>	100
Cc1ccc(C)c(N2C/C(=N\NC(=O)CC#N)C(c3nc4ccccc4s3)C(=O)C2=O)c1 (stereo not given)	SF-268 CNS	µM	>	100
Cn1cc(-c2csc(-c3cn(CCCCN4CCCCC4)c4ccccc34)n2)c2cccnc21	SF-268 CNS	µM	=	3.37
COC(=O)/C(=N/O)C(C(=O)C=C(C)C)C(=O)C(=O)Nc1nc2ccc([N+](=O)[O-])cc2s1 (stereo not given)	SF-268 CNS	µM	=	99.2
Cc1cc2c([N+](=O)[O-])cc3c(c2o1)C(=O)C=CC3=O	SF-268 CNS	µM	=	32.1
CCOCN1COCN(C)C1=O	SF-268 CNS	µM	>	100
O=C(Nc1ccccc1F)c1cc2ccc(O)cc2oc1=Nc1ccccc1F	SF-268 CNS	µM	=	5.26
COC(=O)c1cc2c(o1)-c1nccc3c1c(nc1ccccc13)C2=O	SF-268 CNS	µM	=	24.2
CN(C(=O)c1ccc([N+](=O)[O-])cc1)c1ccccc1	SF-268 CNS	µM	>	100
COC(=O)CN1c2nc(C#N)c(C#N)nc2N(CC(=O)OC)c2nc(C#N)c(C#N)nc21	SF-268 CNS	µM	=	11.4
CC1(C)C2CC(=O)C1(C)C(O)C2Br (stereo not given)	SF-268 CNS	µM	>	100

----------
System: HOP-92 NSCLC
EXPERIMENTAL_PROTOCOL: NCI tumour cell line growth inhibition, 48 h
Form field: TGI (one value per entry).

COMPOUND	TESTED_TARGET	TGI
CC(=O)Oc1cc(C(F)(F)F)ccc1C(=O)OC1(C)OC(=O)c2ccc(C(F)(F)F)cc2O1 (stereo unspecified)	HOP-92 NSCLC	> 100 µM
Nc1nc(N)c(N=O)c(Nc2ccc(Br)cc2)n1	HOP-92 NSCLC	> 100 µM
CCCC/C(=C\C1=C(C)C(=O)C(OC)=C(OC)C1=O)C(=O)O	HOP-92 NSCLC	86.7 µM
N[C@H](CCC(=O)N[C@@H](Cc1c[nH]c2ccccc12)C(=O)O)C(=O)O	HOP-92 NSCLC	> 100 µM
c1csc(-c2ccc(-c3cccs3)c3nsnc23)c1	HOP-92 NSCLC	> 100 µM
C=CCNC(=S)N=Nc1c(O)[nH]c2ccc([N+](=O)[O-])cc12	HOP-92 NSCLC	> 100 µM
